Biological target: T1, human sodium-dependent phosphate transporter 2B (NaPi2b) (human, UniProt O95436 1-690)
T1 construct: UniProt ID is given as 095436 [sic]; also called hNaPi2b; Hu NaPi2b
T1 sequence: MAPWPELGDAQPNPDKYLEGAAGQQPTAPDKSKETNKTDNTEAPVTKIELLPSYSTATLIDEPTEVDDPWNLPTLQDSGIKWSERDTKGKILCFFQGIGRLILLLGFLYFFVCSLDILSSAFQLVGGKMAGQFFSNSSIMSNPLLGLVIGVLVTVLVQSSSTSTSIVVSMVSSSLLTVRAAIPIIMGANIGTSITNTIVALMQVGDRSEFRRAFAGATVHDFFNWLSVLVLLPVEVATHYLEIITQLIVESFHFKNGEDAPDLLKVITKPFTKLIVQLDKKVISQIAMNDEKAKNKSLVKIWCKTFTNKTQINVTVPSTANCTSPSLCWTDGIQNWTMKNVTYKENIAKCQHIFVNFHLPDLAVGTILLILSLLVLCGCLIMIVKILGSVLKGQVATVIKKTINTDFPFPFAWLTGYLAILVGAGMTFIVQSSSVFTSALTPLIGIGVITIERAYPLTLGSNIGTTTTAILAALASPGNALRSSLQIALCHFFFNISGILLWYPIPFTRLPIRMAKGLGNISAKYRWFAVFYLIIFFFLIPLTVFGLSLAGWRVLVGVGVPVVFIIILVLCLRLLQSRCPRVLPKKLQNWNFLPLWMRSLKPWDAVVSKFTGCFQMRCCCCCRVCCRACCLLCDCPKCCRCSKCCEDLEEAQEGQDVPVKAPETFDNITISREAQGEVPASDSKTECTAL
Assay: flow cytometry, IGROV-1 cells (endogenous NaPi2b); apparent Kd
pKd: −log10 of the molar value.
Listed below: pKd values for each entry.
quantity.kind: pKd

INSERT INTO measurements (binder, assay_value) VALUES
  ('v29450 (H3L3) (antibody, human IgG1, kappa, V domains shown, Humanized IgG1/kappa) VH: QVQLVQSGAEVKKPGASVKMSCKASGFTFTSYNVHWVRQAPGQGLEWIAAISPGNGDLSYAQKFQGRATLTVDTSTSTAYMELSSLRSEDTAVYYCARGRTGMGAVDYWGQGTLVTVSS VL: DVQMTQSPSSLSASVGDRVTITCRASQDVYSYLNWYQQKPGKAVKLLIYYTSRLQSGVPSRFSGSGSGTDYTLTISSLQPEDIATYYCQQYNIFPWTFGQGTKLEIKR', 9.02),
  ('v29457 (H4L1) (antibody, human IgG1, kappa, V domains shown, Humanized IgG1/kappa; clones CL_#21506 and CL_#21507) VH: QVQLVQSGAEVKKPGASVKMSCKASGFTFTSYNVHWVRQAPGQGLEWIAAISPGNGDLSYAQKFQGRATLTVDRSTSTAYMELSSLRSEDTAVYYCARGRTGMGAVDYWGQGTLVTVSS VL: DIQMTQSPSSLSASVGDRVTITCRASQDVYSYLNWYQQKPGKAPKLLIYYTSRLQSGVPSRFSGSGSGTDFTLTISSLQPEDFATYYCQQYNIFPWTFGQGTKLEIKR', 8.76),
  ('v29449 (H4L3) (antibody, human IgG1, kappa, V domains shown, Humanized IgG1/kappa) VH: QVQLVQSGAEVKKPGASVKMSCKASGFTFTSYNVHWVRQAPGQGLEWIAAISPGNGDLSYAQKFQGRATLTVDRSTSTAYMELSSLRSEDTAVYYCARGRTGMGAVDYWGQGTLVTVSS VL: DVQMTQSPSSLSASVGDRVTITCRASQDVYSYLNWYQQKPGKAVKLLIYYTSRLQSGVPSRFSGSGSGTDYTLTISSLQPEDIATYYCQQYNIFPWTFGQGTKLEIKR', 9.10),
  ('v29452 (H1L3) (antibody, human IgG1, kappa, V domains shown, Humanized IgG1/kappa) VH: QVQLVQSGAEVKKPGASVKVSCKASGFTFTSYNVHWVRQAPGQGLEWMGAISPGNGDLSYAQKFQGRVTMTRDTSTSTVYMELSSLRSEDTAVYYCARGRTGMGAVDYWGQGTLVTVSS VL: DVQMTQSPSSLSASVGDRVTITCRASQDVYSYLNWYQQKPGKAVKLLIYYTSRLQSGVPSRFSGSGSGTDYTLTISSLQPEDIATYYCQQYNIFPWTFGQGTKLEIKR', 8.80),
  ('v29459 (H2L1) (antibody, human IgG1, kappa, V domains shown, Humanized IgG1/kappa) VH: QVQLVQSGAEVKKPGASVKVSCKASGFTFTSYNVHWVRQAPGQGLEWIAAISPGNGDLSYAQKFQGRVTMTVDTSTSTVYMELSSLRSEDTAVYYCARGRTGMGAVDYWGQGTLVTVSS VL: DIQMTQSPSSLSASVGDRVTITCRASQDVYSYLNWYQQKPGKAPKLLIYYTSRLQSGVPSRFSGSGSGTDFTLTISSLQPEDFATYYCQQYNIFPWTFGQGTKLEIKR', 8.79),
  ('v29458 (H3L1) (antibody, human IgG1, kappa, V domains shown, Humanized IgG1/kappa) VH: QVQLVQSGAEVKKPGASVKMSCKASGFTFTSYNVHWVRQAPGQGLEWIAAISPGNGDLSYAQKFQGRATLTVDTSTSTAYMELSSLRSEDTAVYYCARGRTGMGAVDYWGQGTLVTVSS VL: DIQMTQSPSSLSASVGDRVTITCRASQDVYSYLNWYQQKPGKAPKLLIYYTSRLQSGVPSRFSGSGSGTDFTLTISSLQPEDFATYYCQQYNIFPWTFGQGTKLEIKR', 8.86),
  ('v29451 (H2L3) (antibody, human IgG1, kappa, V domains shown, Humanized IgG1/kappa) VH: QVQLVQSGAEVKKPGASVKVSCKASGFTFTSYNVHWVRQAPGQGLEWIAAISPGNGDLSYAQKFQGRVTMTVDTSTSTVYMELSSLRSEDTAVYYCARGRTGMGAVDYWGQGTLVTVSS VL: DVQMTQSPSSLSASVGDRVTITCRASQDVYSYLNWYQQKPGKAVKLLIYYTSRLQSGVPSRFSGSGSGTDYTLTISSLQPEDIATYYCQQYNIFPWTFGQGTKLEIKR', 8.83);
